# assay text: acute toxicity (LD50) in the mouse
# Format: in vivo
# reported conditions: in vivo, ip
readout name: LD50 (mg/kg)
Provide only the numeric value, understood in mg/kg.

Asked: Give its LD50 value. Item: O=C(CCC(=O)N1CCOCC1)c1ccccc1 [NMBP, N-morpholinyl-β-benzoyl-propionamide]
Given back: 940

* * *

# assay text: acute toxicity (LD50) in the mouse
# Assay type: in vivo
# reported conditions: in vivo, po, per os
readout name: LD50

Asked: Give its LD50 value. Item: O=C(CCC(=O)N1CCOCC1)c1ccccc1 [NMBP, N-morpholinyl-β-benzoyl-propionamide]
Given back: > 2000 mg/kg
